# Experimental details: Growth inhibition of mouse J774 cells at 2 uM after 24 hrs by resazurin reduction assay
# Type: cell-based
# Study conditions: read-out: GI
Property name: inhibition at 24 h, 2 µM (%)
Give the value, in units of %, as a plain number.

[Q] Which inhibition at 24 h, 2 µM reading was recorded for the compound CC(C)n1c2ccc([N+](=O)[O-])cc2c(=O)n1Cc1ccccc1 ?
[A] 8.76

---

# Experimental details: Growth inhibition of mouse J774 cells at 0.625 uM after 24 hrs by resazurin reduction assay
# Format: cell-based
# Study conditions: read-out: GI
Item-by-item account of inhibition at 24 h, 0.625 µM
Give the value, in units of %, as a plain number.

CCCCn1c2ccc([N+](=O)[O-])cc2c(=O)n1Cc1ccccc1; 0.14

[Q] Which inhibition at 24 h, 0.625 µM reading was recorded for the compound CCCn1c2ccc([N+](=O)[O-])cc2c(=O)n1Cc1ccccc1 ?
[A] 4.18

Sourced from ChEMBL document CHEMBL2150935
